Target: T1, hPD-1 Avi-Tag Biotin (AcroBiosystems PD1-H82E4) (human, UniProt Q15116 25-167, biotin on Avi-Tag)
T1 construct: bought; also called human PD-1
T1 sequence (Q15116 25-167 limits assumed): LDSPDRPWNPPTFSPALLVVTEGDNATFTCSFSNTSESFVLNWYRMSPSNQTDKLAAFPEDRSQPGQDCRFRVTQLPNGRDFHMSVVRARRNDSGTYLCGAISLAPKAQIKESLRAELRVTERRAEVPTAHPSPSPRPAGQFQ
Assay: SPR, Ab captured, PD-1 analyte
Measured attribute: koff (s⁻¹)
One number for each entry, in s⁻¹.

Sample records with koff:
>>> value_reported("XVT458-z2-m4 (antibody, V domains shown, IgG format; also called z2_XVT458m4) VH: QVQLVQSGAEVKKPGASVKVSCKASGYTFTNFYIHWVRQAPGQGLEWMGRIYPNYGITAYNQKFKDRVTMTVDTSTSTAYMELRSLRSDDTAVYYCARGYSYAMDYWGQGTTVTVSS VL: DIQMTQSPSSVSASVGDRVTITCSASQGISGDLNWYQQKPGKAPKLLIYHTSSRHSGVPSRFSGSGSGTDFTLTISSLQPEDFATYYCQGYSKDLLTFGGGTKLEIK")
0.000173
>>> value_reported("XVT458-z2-m3 (antibody, V domains shown, IgG format; also called z2_XVT458m3) VH: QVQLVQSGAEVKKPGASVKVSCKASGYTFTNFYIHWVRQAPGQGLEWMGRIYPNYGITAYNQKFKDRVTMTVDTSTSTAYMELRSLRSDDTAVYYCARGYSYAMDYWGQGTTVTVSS VL: DIQMTQSPSSVSASVGDRVTITCSASQGISGDLNWYQQKPGKAPKLLIYHTSQRHSDVPSRFSGSGSGTDFTLTISSLQPEDFATYYCQGYSKDLLTFGGGTKLEIK")
"6.57e-05"

Switching to the query record.
Note to self: koff recorded for XVT458-z2-m5 (antibody, V domains shown, IgG format; also called z2_XVT458m5) VH: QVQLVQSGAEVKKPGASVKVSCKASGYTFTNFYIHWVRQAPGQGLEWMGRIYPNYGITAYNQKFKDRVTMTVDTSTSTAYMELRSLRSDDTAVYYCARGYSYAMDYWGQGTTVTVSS VL: DIQMTQSPSSVSASVGDRVTITCSASQGIYGDLNWYQQKPGKAPKLLIYHTSSRHSGVPSRFSGSGSGTDFTLTISSLQPEDFATYYCQAYSKDLLTFGGGTKLEIK was 9.77e-05

# credit: patent US20260207767A1
